Biological target: Opiate k (Homo sapiens)
Sequence (P41145 whole entry): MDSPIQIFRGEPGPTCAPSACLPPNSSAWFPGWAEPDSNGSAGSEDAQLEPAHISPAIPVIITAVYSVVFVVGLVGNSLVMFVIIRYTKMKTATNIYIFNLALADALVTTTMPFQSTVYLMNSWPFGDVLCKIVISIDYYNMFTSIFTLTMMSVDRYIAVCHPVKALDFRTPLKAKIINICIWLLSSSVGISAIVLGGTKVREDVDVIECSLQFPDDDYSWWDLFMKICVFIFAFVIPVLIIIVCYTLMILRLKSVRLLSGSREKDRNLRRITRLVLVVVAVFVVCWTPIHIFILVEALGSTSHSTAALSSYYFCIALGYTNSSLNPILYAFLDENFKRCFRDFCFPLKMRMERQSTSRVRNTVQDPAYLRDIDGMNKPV
OUTCOME_MEASURE: pIC50
Answers are plain numbers, as −log10 of the molar value.

*Q* Look up and report measured pIC50 for this entry: NC1(c2ccccc2Cl)CCCCC1=O (racemic) [NorKetamine, (R,S)-Norketamine]
*A* 3.18

---

Biological target: UniProt:P41145
Assay: Opiate k binding assay
OUTCOME_MEASURE: pKi
Give bare numbers, as −log10 of the molar value.

*Q* Write down the reported pKi (system: UniProt:P41145) of NC1(c2ccccc2Cl)CCCCC1=O (racemic) [NorKetamine, (R,S)-Norketamine]
*A* 3.42
